Values compiled from ChEMBL document CHEMBL3994674.

# Experimental protocol: Tmax in Wistar rat at 20 mg/kg, po by HPLC-MS analysis
# Type: ADME, organism-based
# Particulars: in vivo
Quantity measured: Tmax (min)
Output spec: scalar in min, unitless text.

Ask: Recall and state the measured Tmax for Oc1ccc(/C=C/c2cc(O)cc(O)c2)cc1 .
Result: 4.98

* * *

# Experimental protocol: Cmax in CD rat at 50 mg/kg/day, po administered via gavage every 24 hrs for 14 consecutive days measured on day 14 post dose by HPLC-MS analysis
# Type: ADME, organism-based
# Set-up: dose 50 mg/kg/day, route oral
# Particulars: in vivo
Quantity measured: Cmax (ng/mL)
Lab book: enter the figure in ng/mL, no units written.

Ask: Give recorded Cmax. Oc1ccc(/C=C/c2cc(O)cc(O)c2)cc1
Result: 176
